Test system: HEK-293T
protocol.notes: Multiplex assay against HEK293T
Format: toxicity, cell-based
conditions.used: human, 48 h, 10 µM, compound concentration 10 uM, replicate 1
Measured Population Normal (%) of individual entries
API: value field is a number in %; no unit string.

Examples from the recorded data:
CC(/C=C1\SC(=S)N(CCCC(=O)Nc2ccc(C(=O)O)c(O)c2)C1=O)=C\c1ccccc1; 87
CCCCCNC(=N)N/N=C/c1c[nH]c2ccc(OC)cc12.O=C(O)/C=C\C(=O)O [TEGASEROD MALEATE]; 68
CCCCN(CC)c1nc(C)nc2c1c(C)cn2-c1c(C)cc(C)cc1C.Cl; 90
Cc1ccc(S(=O)(=O)NC2c3ccccc3Oc3ccccc32)cc1; 91
Oc1cccc(-c2nc(N3CCOCC3)c3oc4ncccc4c3n2)c1; 82
Cc1c(P(=S)(c2ccccc2)c2ccccc2)n2ccccc2[n+]1C/C=C/c1ccccc1.[Br-]; 77
Cl.NC[C@@H]1O[C@H](C23CC4CC(CC(C4)C2)C3)Cc2c1ccc(O)c2O; 84
CN1C(=O)[C@@H](NC(=O)c2cc3ccccc3[nH]2)N=C(c2ccccc2)c2ccccc21 [DEVAZEPIDE]; 77

Ask: Answer with reported Population Normal (%) of "CC(C)[C@H](CO)Nc1nc(Nc2cccc(Cl)c2)c2ncn(C(C)C)c2n1"
Reply: 87

* * *

System: Fibroblast
protocol.notes: Multiplex assay against human fibroblast
Format: toxicity, cell-based
conditions.used: 24 h, 1 µM, compound concentration 1 uM, replicate 1
So basically: is Population Hoechst High Intensity Objects (%) under 10%? Then yes. Not under? Then no.

Completed entries (count: 3):
Cc1c(Nc2ccc(S(=O)(=O)N3CCN(C)CC3)cc2F)nc2ccc(-c3cnn(C4CC4)c3)cn2c1=O; no
CN(c1cc(C(F)(F)F)nc(OCCC(=O)O)n1)c1cccc2c1CCC2; no
CC(Cc1ccc(O)c(O)c1)C(C)Cc1ccc(O)c(O)c1 (stereo not drawn) [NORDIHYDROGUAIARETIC ACID]; yes

Then this compound:
Ask: Given the entry Cl.Cn1c2c(c3ccc(Cl)c(Cl)c31)C(C#N)C1(CCNCC1)NC2=O (stereo not drawn) , would its reported Population Hoechst High Intensity Objects (%) be below 10%?
Reply: no

* * *

Tested on: U2OS
protocol.notes: Multiplex assay against U2OS
Format: toxicity, cell-based
conditions.used: human, 48 h, 1 µM, compound concentration 1 uM, replicate 2
Measured Total Cell Count of individual entries
// no unit string in output, number only

Examples from the recorded data:
Cc1ccc(S(=O)(=O)NC2c3ccccc3Oc3ccccc32)cc1; 93
CC(C)C[C@H](NC(=O)[C@H](Cc1ccccc1)NC(=O)CNC(=O)CNC(=O)[C@@H](N)Cc1ccc(O)cc1)C(=O)O; 80
C=CC(=O)Nc1cc(-n2c(=O)ccc3cnc4ccc(-c5ccc(NS(C)(=O)=O)cc5)cc4c32)ccc1C; 115
N#CCNC(=O)c1ccc(-c2ccnc(Nc3ccc(N4CCOCC4)cc3)n2)cc1; 3226
CCCc1cc(C)[nH]c(=O)c1CNC(=O)c1cc(-c2ccc(N3CCN(C(C)C)CC3)nc2)cc2c1cnn2C(C)C; 65
CCCCN(CC)c1nc(C)nc2c1c(C)cn2-c1c(C)cc(C)cc1C.Cl; 170

Ask: Answer with reported Total Cell Count of "CC(C)[C@H](CO)Nc1nc(Nc2cccc(Cl)c2)c2ncn(C(C)C)c2n1"
Reply: 168

Ask: Answer with reported Total Cell Count of "N#Cc1cccc(C(=O)Nc2cc(-c3ccccc3)nn2-c2ccccc2)c1"
Reply: 98
